test system: HUVEC/MSC spheroids viability; experiment: Human HUVEC/MSC cell line growth inhibition [KRAS2]; conditions: second compound 3.16 µM; first compound 0.01 µM; stronger effect = lower value;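 for viability, T/C: percent of DMSO vehicle control luminescence so 100% = untreated viability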
Field: label. Allowed values: yes (1) (viability, T/C < 90%) or no (0) (viability, T/C >= 90%).

q: Determine whether this molecule shows viability, T/C lower than 90% (ties excluded): Cn1ncnc1[C@H]1c2n[nH]c(=O)c3cc(F)cc(c23)N[C@@H]1c1ccc(F)cc1 + C=CC(=O)N1CCN(c2nc(=O)n(-c3c(C)ccnc3C(C)C)c3nc(-c4c(O)cccc4F)c(F)cc23)C(C)C1
a: no (0)

q: Determine whether this molecule shows viability, T/C lower than 90% (ties excluded): CC(C)n1nc(-c2ccc3oc(N)nc3c2)c2c(N)ncnc21 + COc1cc2nc(C)nc(NC(C)c3cc(N)cc(C(F)(F)F)c3)c2cc1OC1CCOC1
a: yes (1)

---

Consider the following compounds and their measured viability, T/C readings.
tested on: HUVEC/MSC spheroids viability; assay: Human HUVEC/MSC cell line growth inhibition [KRAS2]; conditions: second compound 0.1 µM; first compound 0.01 µM; stronger effect = lower value;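 for viability, T/C: percent of DMSO vehicle control luminescence so 100% = untreated viability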

Worked cases, viability, T/C given:
compound	viability, T/C
CN(C)C/C=C/C(=O)Nc1cc2c(Nc3ccc(F)c(Cl)c3)ncnc2cc1O[C@H]1CCOC1 + COc1cc2nc(C)nc(NC(C)c3cc(N)cc(C(F)(F)F)c3)c2cc1OC1CCOC1	73.7%
CC(C)n1nc(-c2ccc3oc(N)nc3c2)c2c(N)ncnc21 + COc1cc2nc(C)nc(NC(C)c3cc(N)cc(C(F)(F)F)c3)c2cc1OC1CCOC1	46.5%
Cn1ncnc1[C@H]1c2n[nH]c(=O)c3cc(F)cc(c23)N[C@@H]1c1ccc(F)cc1 + CNCc1ccccc1-c1csc(C(C)Nc2nc(C)nc3cc(OC)c(OC)cc23)c1	70.6%

q: Query (compound): CN(C)C/C=C/C(=O)Nc1cc2c(Nc3ccc(F)c(Cl)c3)ncnc2cc1O[C@H]1CCOC1 + CNCc1ccccc1-c1csc(C(C)Nc2nc(C)nc3cc(OC)c(OC)cc23)c1 ; field requested: viability, T/C
a: 76.7%

q: Query (compound): CN(C)C/C=C/C(=O)Nc1cc2c(Nc3ccc(F)c(Cl)c3)ncnc2cc1O[C@H]1CCOC1 + C=CC(=O)N1CCN(c2nc(=O)n(-c3c(C)ccnc3C(C)C)c3nc(-c4c(O)cccc4F)c(F)cc23)C(C)C1 ; field requested: viability, T/C
a: 80.1%

---

test system: HUVEC/MSC spheroids viability; experiment: Human HUVEC/MSC cell line growth inhibition [KRAS2]; settings: curve of first compound; second compound 0.03 µM
outcome.measure: pIC50
# pIC50 = -log10(concentration in molar units)

Worked cases, pIC50 given:
molecule	pIC50
Cn1nccc1Nc1nccc(-c2cc3c(s2)C(C)(C)N(CCN2CCOCC2)C3=O)n1 + C=CC(=O)N1CCN(c2nc(OCC3CCCN3C)nc3c2CCN(c2cccc4cccc(C)c24)C3)CC1CC#N	5.52
CC1(C)CCC(CN2CCN(c3ccc(C(=O)NS(=O)(=O)c4ccc(NCC5CCOCC5)c([N+](=O)[O-])c4)c(Oc4cnc5[nH]ccc5c4)c3)CC2)=C(c2ccc(Cl)cc2)C1 + C=CC(=O)N1CCN(c2nc(OCC3CCCN3C)nc3c2CCN(c2cccc4cccc(C)c24)C3)CC1CC#N	5.32
CC(=O)Nc1cccc(-n2c(=O)n(C3CC3)c(=O)c3c(Nc4ccc(I)cc4F)n(C)c(=O)c(C)c32)c1 + C=CC(=O)N1CCN(c2nc(OCC3CCCN3C)nc3c2CCN(c2cccc4cccc(C)c24)C3)CC1CC#N	7.76
CC1COCCN1c1cc(-c2ccnn2C)c2ccnc(-c3ccn[nH]3)c2n1 (stereo not given) + C=CC(=O)N1CCN(c2nc(OCC3CCCN3C)nc3c2CCN(c2cccc4cccc(C)c24)C3)CC1CC#N	6.04

Now look at this one.
q: Query (molecule): COC(=O)c1ccc2c(C(=Nc3ccc(N(C)C(=O)CN4CCN(C)CC4)cc3)c3ccccc3)c(O)[nH]c2c1 + C=CC(=O)N1CCN(c2nc(OCC3CCCN3C)nc3c2CCN(c2cccc4cccc(C)c24)C3)CC1CC#N ; field requested: pIC50
a: 5.65
